target under test: Sigma^70 saturated E. coli RNA Polymerase (Escherichia coli, UniProt P0A7Z4+P0A800+P0A8T7+P0A8V2)
Construct: purchased Epicenter
Sequence (P0A8V2 whole entry): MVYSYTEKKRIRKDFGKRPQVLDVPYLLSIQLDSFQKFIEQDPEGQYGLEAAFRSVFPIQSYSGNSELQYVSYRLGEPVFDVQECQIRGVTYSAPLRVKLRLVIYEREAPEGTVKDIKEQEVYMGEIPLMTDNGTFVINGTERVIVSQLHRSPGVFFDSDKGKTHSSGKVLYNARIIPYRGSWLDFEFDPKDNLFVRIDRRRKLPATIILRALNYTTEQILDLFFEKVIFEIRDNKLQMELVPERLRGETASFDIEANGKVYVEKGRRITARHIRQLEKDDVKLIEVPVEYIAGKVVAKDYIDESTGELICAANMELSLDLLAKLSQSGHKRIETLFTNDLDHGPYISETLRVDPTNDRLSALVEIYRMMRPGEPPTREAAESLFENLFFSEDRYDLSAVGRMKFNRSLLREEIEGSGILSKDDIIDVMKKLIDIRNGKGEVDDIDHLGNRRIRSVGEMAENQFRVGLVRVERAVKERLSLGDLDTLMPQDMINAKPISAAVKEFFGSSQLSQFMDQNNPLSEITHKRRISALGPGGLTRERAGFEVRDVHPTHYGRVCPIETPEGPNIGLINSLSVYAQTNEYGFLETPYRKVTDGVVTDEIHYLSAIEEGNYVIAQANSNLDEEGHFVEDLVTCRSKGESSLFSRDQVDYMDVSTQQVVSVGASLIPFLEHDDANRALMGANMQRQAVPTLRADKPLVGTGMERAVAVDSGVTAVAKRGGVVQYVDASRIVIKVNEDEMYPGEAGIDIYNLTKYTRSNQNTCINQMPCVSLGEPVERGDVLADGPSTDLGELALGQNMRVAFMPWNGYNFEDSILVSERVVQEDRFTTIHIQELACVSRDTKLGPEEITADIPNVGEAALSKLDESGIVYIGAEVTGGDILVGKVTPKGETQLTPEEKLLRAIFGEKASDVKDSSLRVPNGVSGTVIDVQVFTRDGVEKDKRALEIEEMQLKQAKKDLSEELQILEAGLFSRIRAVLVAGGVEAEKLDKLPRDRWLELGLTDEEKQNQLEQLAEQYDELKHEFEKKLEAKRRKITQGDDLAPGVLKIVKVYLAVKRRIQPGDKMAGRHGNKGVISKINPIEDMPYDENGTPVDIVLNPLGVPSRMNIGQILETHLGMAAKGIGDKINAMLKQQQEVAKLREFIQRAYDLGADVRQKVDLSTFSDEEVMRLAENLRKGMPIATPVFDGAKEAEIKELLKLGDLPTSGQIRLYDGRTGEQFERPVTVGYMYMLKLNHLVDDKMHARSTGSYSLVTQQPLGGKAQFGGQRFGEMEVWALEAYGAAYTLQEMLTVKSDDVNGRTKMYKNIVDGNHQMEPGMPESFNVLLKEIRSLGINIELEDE
Sequence (P0A8T7 whole entry): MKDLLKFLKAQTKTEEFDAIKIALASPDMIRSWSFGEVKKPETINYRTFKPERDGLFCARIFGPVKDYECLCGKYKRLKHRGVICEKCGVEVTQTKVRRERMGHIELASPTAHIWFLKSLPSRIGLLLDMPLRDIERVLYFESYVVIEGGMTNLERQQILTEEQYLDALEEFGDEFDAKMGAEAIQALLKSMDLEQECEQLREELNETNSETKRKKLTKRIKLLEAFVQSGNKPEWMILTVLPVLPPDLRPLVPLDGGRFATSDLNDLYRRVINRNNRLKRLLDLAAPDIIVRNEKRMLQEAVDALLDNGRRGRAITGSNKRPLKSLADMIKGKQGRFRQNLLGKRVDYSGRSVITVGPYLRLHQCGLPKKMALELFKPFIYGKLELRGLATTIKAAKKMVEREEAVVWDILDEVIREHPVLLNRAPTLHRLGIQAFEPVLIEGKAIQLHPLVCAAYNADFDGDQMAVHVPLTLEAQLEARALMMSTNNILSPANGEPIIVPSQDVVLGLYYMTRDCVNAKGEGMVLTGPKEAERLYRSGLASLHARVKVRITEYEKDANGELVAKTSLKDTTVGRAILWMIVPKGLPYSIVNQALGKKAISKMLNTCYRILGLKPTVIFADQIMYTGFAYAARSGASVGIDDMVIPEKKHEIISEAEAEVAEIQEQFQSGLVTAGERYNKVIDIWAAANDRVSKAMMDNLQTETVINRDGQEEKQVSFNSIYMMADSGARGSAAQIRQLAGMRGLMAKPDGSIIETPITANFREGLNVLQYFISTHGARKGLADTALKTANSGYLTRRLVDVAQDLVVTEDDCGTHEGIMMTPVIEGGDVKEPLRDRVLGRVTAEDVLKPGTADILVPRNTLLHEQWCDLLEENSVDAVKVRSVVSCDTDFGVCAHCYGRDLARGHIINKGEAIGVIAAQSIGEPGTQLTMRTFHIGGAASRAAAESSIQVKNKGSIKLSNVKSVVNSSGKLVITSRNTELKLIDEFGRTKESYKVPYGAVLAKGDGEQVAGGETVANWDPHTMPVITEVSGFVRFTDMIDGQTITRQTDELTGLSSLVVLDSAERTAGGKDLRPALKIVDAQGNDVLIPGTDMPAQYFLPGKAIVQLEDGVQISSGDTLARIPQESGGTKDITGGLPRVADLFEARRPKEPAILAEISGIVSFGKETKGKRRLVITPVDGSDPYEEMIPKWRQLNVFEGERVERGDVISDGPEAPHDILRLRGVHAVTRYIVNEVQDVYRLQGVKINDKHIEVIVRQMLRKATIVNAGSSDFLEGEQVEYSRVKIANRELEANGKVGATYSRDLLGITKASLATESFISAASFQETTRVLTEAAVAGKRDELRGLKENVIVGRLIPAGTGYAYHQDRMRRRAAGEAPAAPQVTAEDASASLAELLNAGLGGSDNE
Sequence (P0A7Z4 whole entry): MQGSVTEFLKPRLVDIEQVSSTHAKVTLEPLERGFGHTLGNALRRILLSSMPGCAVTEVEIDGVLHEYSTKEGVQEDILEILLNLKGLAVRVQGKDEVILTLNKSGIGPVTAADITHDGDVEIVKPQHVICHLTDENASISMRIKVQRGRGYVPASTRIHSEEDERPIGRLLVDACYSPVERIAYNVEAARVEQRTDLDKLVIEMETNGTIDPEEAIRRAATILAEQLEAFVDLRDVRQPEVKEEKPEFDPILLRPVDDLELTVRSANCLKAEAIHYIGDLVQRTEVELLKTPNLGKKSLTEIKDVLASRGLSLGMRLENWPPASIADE
Sequence (P0A800 whole entry): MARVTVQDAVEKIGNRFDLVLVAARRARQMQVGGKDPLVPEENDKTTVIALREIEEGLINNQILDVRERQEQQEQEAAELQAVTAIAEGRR
assay info: IC50 assay, inhibition of RNA polymerase
Type: biochemical
assay context: Table 3, heteroaryl compounds
pIC50: −log10 of the molar value.
reported property: pIC50

                                   molecule  readout_value
0  Cc1c(-c2c[nH]nc2-c2ccc(F)cc2)sc2ccccc12 [Example 37]         > 3.30

Would you kindly look at the next entry?
Could you share which pIC50 value was measured for Fc1cccc(-c2c[nH]nc2-c2ccsc2)c1 [Example 38] ?
> 3.30

###

System: E.c(tolC)
assay info: Minimum Inhibitory Concentration assay, E.c(tolC)
Type: cell-based
assay context: 16 h, read-out: MIC (μM) E.c(tolC)
reported property: MIC

Use these answered entries as a reference point.
>>> df
                                   compound  target_under_test  readout_value
0  Fc1cccc(-c2c[nH]nc2-c2ccsc2)c1 [Example 38]          E.c(tolC)       < 500 µM
1  Fc1ccc(-c2n[nH]cc2-c2cc(F)cc(C(F)(F)F)c2)cc1 [Example 26]          E.c(tolC)       < 500 µM
2  Clc1ccc(-c2[nH]ncc2-c2ccccc2)cc1 [Example 3]          E.c(tolC)       > 500 µM
3  CS(=O)(=O)Nc1ccc(CCNc2ccc(-c3c[nH]nc3-c3ccc(F)cc3)cc2C(F)(F)F)cc1 [Example 23]          E.c(tolC)       > 500 µM
4  O=C(NCCNc1cc(-c2c[nH]nc2-c2ccc(F)cc2)cc(C(F)(F)F)c1)Nc1ccc(Cl)c(C(F)(F)F)c1 [Example 29]          E.c(tolC)       > 500 µM

State recorded MIC for all listed compounds.
1. Cc1c(-c2c[nH]nc2-c2ccc(F)cc2)sc2ccccc12 [Example 37]
2. O=C(Nc1ccc(Cl)c(C(F)(F)F)c1)NC1CCN(c2ccc(-c3c[nH]nc3-c3ccc(F)cc3)cc2C(F)(F)F)C1 (stereo not drawn) [Example 25]
3. Fc1ccc(-c2cn[nH]c2-c2cccc(Cl)c2)cc1C(F)(F)F [Example 11]
4. FC(F)(F)c1cc(-c2cn[nH]c2-c2cccc(Cl)c2)ccc1N1CCCC1 [Example 12]

1: < 500 µM; 2: > 500 µM; 3: < 500 µM; 4: < 500 µM

###

target under test: Sigma^70 saturated E. coli RNA Polymerase (Escherichia coli, UniProt P0A7Z4+P0A800+P0A8T7+P0A8V2)
Construct: purchased Epicenter
assay info: IC50 assay, inhibition of RNA polymerase
Type: biochemical
assay context: Table 1, compounds of Formula 1
pIC50: −log10 of the molar value.
For each of the compounds below, state its pIC50.

Below, each entry is followed by its recorded pIC50 result.
In [3]: df
Out[3]:
                                   compound  readout_value
0  Clc1ccc(-c2[nH]ncc2-c2ccccc2)cc1Cl [Example 4]         < 3.30
1  O=C(NCCNc1cc(-c2c[nH]nc2-c2ccc(F)cc2)cc(C(F)(F)F)c1)c1ccccc1 [Example 28]         < 3.30
2  Fc1ccc(-c2n[nH]cc2-c2ccc(F)c(C(F)(F)F)c2)cc1 [Example 18]         > 3.30
3  Clc1cccc(-c2cn[nH]c2-c2ccc(Cl)c(Cl)c2)c1 [Example 7]         < 3.30
4  O=C(NCCNc1cc(-c2c[nH]nc2-c2ccc(F)cc2)cc(C(F)(F)F)c1)Nc1ccc(Cl)c(C(F)(F)F)c1 [Example 29]         > 3.30

Need pIC50 for each of these compounds.
1. FC(F)(F)c1cc(-c2cn[nH]c2-c2cccc(Cl)c2)ccc1Cl [Example 9]
2. O=C(COc1ccccc1)Nc1cccc(-c2c[nH]nc2-c2ccc(F)c(C(F)(F)F)c2)c1 [Example 35]
3. Clc1ccc(-c2[nH]ncc2-c2ccccc2)cc1 [Example 3]
4. O=[N+]([O-])c1cccc(-c2c[nH]nc2-c2ccc(F)c(C(F)(F)F)c2)c1 [Example 32]
5. FC(F)(F)c1cc(-c2cn[nH]c2-c2ccccc2)ccc1Cl [Example 10]
6. Cc1ccc(-c2[nH]ncc2-c2ccccc2)cc1 [Example 5]

["> 3.30", "> 3.30", "< 3.30", "> 3.30", "> 3.30", "< 3.30"]
